src = the supplement of paper PMC12350171

Tested on: Haemophilus parainfluenzae
Test: growth AUC normalised to DMSO control (fraction of control); higher = less growth inhibition, active = hit call of the paper;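 active = AUC significantly below DMSO controls by Student t-fit with adjusted P under 0.01; inactive = not significantly reduced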
Conditions: 20 µM
Where a name gives a salt, the structure may show the parent alone.
Field 'call' accepts active, inactive

Reference set, count: 4
Input: Tell me the assay call for CC(C)C(=O)Nc1ccc([N+](=O)[O-])c(C(F)(F)F)c1 [Flutamide] please.
Output: inactive

Input: Tell me the assay call for "CC(C)(Oc1ccc(Cl)cc1)C(=O)O" please.
Output: inactive

Input: Tell me the assay call for CNCC(O)c1ccc(O)cc1 (centres undefined) [Synephrine] please.
Output: inactive

Input: Tell me the assay call for CC1CC(OC(=O)c2ccccc2O)CC(C)(C)C1 (centres undefined) [Homosalate] please.
Output: inactive

Further cases:
Input: Tell me the assay call for COc1ccc2[nH]c([S+]([O-])Cc3ncc(C)c(OC)c3C)nc2c1 (centres undefined) please.
Output: inactive

Input: Tell me the assay call for "Cc1c(NC(=O)c2cccnc2)c(=O)n(-c2ccccc2)n1C" please.
Output: inactive

Input: Tell me the assay call for C=CCOc1ccccc1OCC(O)CNC(C)C (centres undefined) [Oxprenolol hydrochloride] please.
Output: inactive

Input: Tell me the assay call for "O=S(=O)(O)CCS" please.
Output: inactive
